# System: MDA-N
# PROCEDURE_SUMMARY: NCI tumour cell line growth inhibition, 48 h
Calls of active or inactive are those of the source. No stated cut-off is given here; in the data, active = GI50 up to about 1.1 µM and inactive = higher.
Give one outcome, nothing more. List: 1 (active), -1 (inactive)

Examples from the recorded data:
| COMPOUND | CATEGORY |
| --- | --- |
| COC(=O)CCC(NC(=O)OC(C)(C)C)C(=O)NC(Cc1ccc(NC(=O)CCCC(C)=O)cc1)C(=O)NC(CCC(=O)OC)C(=O)OC (stereo unspecified) | -1 |
| CC(C)c1cccc(C(C)C)c1NC(=O)/C(CC(=O)CC(c1ccccc1)c1c(O)c2ccccc2oc1=O)=N/O (stereo unspecified) | -1 |
| Clc1cccc(/C=N/C23CC4CC(CC(C4)C2)C3)c1Cl | -1 |
| CCN(CC)CCN1CCN=C2c3cc(OC)ccc3Nc3c([N+](=O)[O-])ccc1c32 | 1 |
| Cc1c(C#N)c(N)[nH]c(=S)c1C#N | -1 |

Query string: Assay result, entry CN1C(=O)C(C#N)C2C[C@@]1(C)Oc1ccccc12 (stereo partly specified) — outcome?
Result string: -1

Query string: Test call, this compound: COc1cccc(-c2nc(-c3cnccn3)n(C3OC(CO)C(O)C3O)n2)c1 (stereo unspecified)
Result string: -1

Query string: // return assay outcome for OC1(c2ccc(-c3ccccc3)cc2)c2ccccc2C2=NCCN21 (stereo unspecified)
Result string: -1

Query string: Which outcome did this test record for the compound CC(=O)NC1C(OCc2ccccc2)OC(CO)C(O)C1OC(C)C(=O)NC(C)C(=O)NC(CCC(=O)NCCCCNc1c2ccccc2nc2cccc([N+](=O)[O-])c12)C(N)=O (stereo unspecified) ?
Result string: 1

Query string: Check the results log: what was the call for CCN(CC)CCC1CCCCN1CC(=O)N1c2ccccc2NC(=O)c2ccccc21 (stereo unspecified) ?
Result string: -1

Query string: Each compound tested received a call. Report the one for `O=C(N/N=C/c1ccco1)c1cc(I)cc(I)c1O` .
Result string: -1

---

# Test system: RPMI-8226
# PROCEDURE_SUMMARY: NCI tumour cell line growth inhibition, 48 h
Activity calls are given as the source filed them. Cut-off read from the data, not from the text of the source: active = GI50 up to about 1.1 µM and inactive = higher.
PARAMETER_MEASURED: GI50

| MOLECULE | READOUT_VALUE |
| --- | --- |
| Nc1nc(SCc2ccccn2)c2ncn(C3CCCC3)c2n1 | > 100 µM (inactive) |

Hi team, please reply with GI50 for each item in this list.
1. CC(C)OP(=O)(OC(C)C)/C(N)=N/Nc1ccc([N+](=O)[O-])cc1
2. CNC(=O)NS(=O)(=O)c1ccc(C)cc1.NS(=O)O
3. CCCN(CCC)C(=O)c1nc(N)nc(-c2ccc(OC)cc2)c1-c1ccc(OC)cc1

Result string:
["> 100 µM (inactive)", "> 100 µM (inactive)", "29 µM (inactive)"]

Report GI50 for each item below.
1. O=[N+]([O-])c1ccc(C2=Nc3ccccc3[S+]([O-])C(c3ccccc3)C2)cc1 (stereo unspecified)
2. O=C(O)C1CCCN1Cc1cc2ccccc2c2ccccc12 (stereo unspecified)

Result string:
1. 5.56 µM (inactive)
2. > 100 µM (inactive)

---

# Test system: SW-620
# PROCEDURE_SUMMARY: NCI tumour cell line growth inhibition, 48 h
Active and inactive are the calls of the source. Cut-off read from the data, not from the text of the source: active = GI50 up to about 1.1 µM and inactive = higher.
Write down one outcome, taken from active, inactive

| COMPOUND | CATEGORY |
| --- | --- |
| CCN(CC)CCN1CCN=C2c3cc(OC)ccc3Nc3c([N+](=O)[O-])ccc1c32 | active |
| Cc1c(C#N)c(N)[nH]c(=S)c1C#N | inactive |
| CC(C(=O)ON1C(=O)CCC1=O)c1ccc(C(=O)c2ccccc2)s1 (stereo unspecified) | inactive |

Query string: Recorded test outcome, item `CCCN(CCC)C(=O)c1nc(N)nc(-c2ccc(OC)cc2)c1-c1ccc(OC)cc1`
Result string: inactive

Query string: Give the logged outcome of this assay for the following compound: `CN[C@@H]1C[C@H]2O[C@@](C)([C@@H]1OC)n1c3ccccc3c3c4c(c5c6ccccc6n2c5c31)C(=O)N[C@@H]4O`
Result string: active
